assay: Novel Modifiers of Survival Motor Neuron (SMN) Protein: Gene Identification via Genome-wide siRNA Screen; conditions: HEK293T SMN2-luciferase reporter, siRNA knockdown, 72 h; actives lie on both sides;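 further: luminescence tracks full-length SMN protein made from the SMN2 reporter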
Hit rate of the full screen: of about 31,000 sequences, about 1,400 (4.5%) were called active. This is one part of a sample in which actives are shown more often than they occur.
Where median seed-adjusted z-score equals or exceeds -0.2, the correct label is fulfilled; where it does not, the label is not fulfilled.

See these solved cases before continuing.
GGGAAGGUGUUACAGGCUATT against FAM62A :: not fulfilled
UAACAAAUCCUAUUAGAUUTT against CTBP2 :: not fulfilled
GCCUUAAGAUCUCGGCGUATT against PTPRK :: fulfilled
UCCUUGUUGUGGACAGGGATT against SPINK4 :: fulfilled
CACUCGAAGCAGUUUGGAATT against SMS :: fulfilled

IN: Please check the record GCACAAAUCUCAAUAUUCATT against GPSM3 and state if its median seed-adjusted z-score is at or above -0.2.
OUT: not fulfilled

IN: Quick check, median seed-adjusted z-score >= -0.2? CAAACUAUCUCUGAAAAUATT against TRYX3
OUT: fulfilled

IN: Is median seed-adjusted z-score for GGGACAAGCUUGACAAGGUTT against TRIM62 at or above -0.2?
OUT: fulfilled

IN: Hi, just wondering whether GGAUAUAAUGAGAUAUGUUTT against ETF1 shows median seed-adjusted z-score of -0.2 or higher.
OUT: not fulfilled

IN: Confirm if median seed-adjusted z-score reported for the sequence CUGUUGAAAUGUAAAACGATT against VNN1 is -0.2 or above.
OUT: fulfilled

IN: median seed-adjusted z-score >= -0.2 for GGACAAAGACUGGUACGUUTT against HTT ?
OUT: not fulfilled

IN: Assess whether reported median seed-adjusted z-score for GGAGAUUCCAUAAGACAAUTT against ZNF114 sits at -0.2 or higher.
OUT: not fulfilled
